Source of measurements: patent US20190309034A1

target: Recombinant soluble 60-mer human BAFF (His-HuBAFF 134-285) (human, UniProt Q9Y275 134-285); assay: cell-based or functional assay
Task for the reader: assign each of the following binders its reported Soluble 60-mer huBAFF (4.2 pM) Neutralization IC90.
Answers are plain numbers, in pM.

>  <binder>
Reference 1 (antibody, human IgG4 S228P, kappa, V domains shown, Comparator anti-BAFF antibody) VH: QVQLQQWGAGLLKPSETLSLTCAVYGGSFSGYYWSWIRQPPGKGLEWIGEINHSGSTNYNPSLKSRVTISVDTSKNQFSLKLSSVTAADTAVYYCARGYYDILTGYYYYFDYWGQGTLVTVSS VL: EIVLTQSPATLSLSPGERATLSCRASQSVSRYLAWYQQKPGQAPRLLIYDASNRATGIPARFSGSGSGTDSTLTISSLEPEDFAVYYCQQRSNWPRTFGQGTKVEIKR

>  <reported>
21

$$$$

Count: 3. Required value per item: Soluble 60-mer huBAFF (4.2 pM) Neutralization IC90.
1. 227D3B11 (antibody, V domains shown, Mouse lead antibody (hybridoma)) VH: QVQLQQPGAELVKPGASVKLSCKASGYSFSTFFIHWIQQRPGRGLEWIGRIDPNSGGTKYNEKFESKATLTVDKPSSTAYMHLSSLTSEDSAVYYCARGEDLLIRTDAMDYWGQGTSVTVSS VL: DIVMTQSQKIMSTTVGDRVSITCKASQNAGIDVAWFQQKPRQSPKLLIFSTSNRYTGVPDRFAGSGSGTDFTLTIYNVQSEDLADYFCLQYRSYPRTFGGGTKLEIK
2. 13J018-1A4 (antibody, V domains shown, Mouse lead antibody (hybridoma)) VH: QVQLQQSGPEVVRPGASVKISCKAPDHIFSIHWMQWVRQRPGPGLEWIGEIFPGSGTTDYNEKFKGKATVTVDRGSRSAYMQFNSLTSEDSAVYFCASGAFDYWGQGTTLTVSS VL: DIQMTQSPSSLSASLGERVSLTCRASQDIGNRLNWLQQEPDGTIKRLIYATSSLDSGVPKRFSGSRSGSDYSLTISSLESEDFVDYYCLQYASSPFTFGTGTKLEIK
3. 235F5B9 (antibody, V domains shown, Mouse lead antibody (hybridoma)) VH: QVQLQQPGAELVKPGASVKLSCKASGYSFSTFFIHWIQQRPGRGLEWIGRIDPNSGATKYNEKFESKATLTVDKPSSTAYMHLSSLTSEDSAVYYCARGEDLLIRTDALDYWGQGTSVTVSS VL: DIVMTQSQKIMSTTVGDRVSITCKASQNAGIDVAWFQQKPRQSPKLLIFSKSNRYTGVPDRFAGSGSGTDFTLTIYNVQSEDLADYFCLQYRSYPRTFGGGTKLEIK

1: 1.6; 2: 23; 3: 2.2
